Test system: MOLT-4 leukemia
Assay: NCI tumour cell line growth inhibition, 48 h
For each record, write down the corresponding GI50.

Could you tell me which GI50 is on file for `O=C1NCN(c2ccccc2)C12CCN(CCCC(c1ccc(F)cc1)c1ccc(F)cc1)CC2` ?
2310 nM

Could you tell me which GI50 is on file for `C=C1C(=O)O[C@H]2[C@H]1CC/C(Cn1cc(Cc3c[nH]c4ccccc34)nn1)=C\CC[C@@]1(C)O[C@@H]21` ?
2290 nM

Could you tell me which GI50 is on file for `Clc1ccccc1[C@@H]1C[C@@H]2Cc3cc(Br)c4ccccc4c3N1O2` ?
6940 nM

Could you tell me which GI50 is on file for CC(=Nc1ccccc1)C1=C(O)C(Cc2cccc(F)c2)NC1=O (centres undefined) ?
158 nM

---

Test system: OVCAR-3 ovarian
Test: NCI tumour cell line growth inhibition, 48 h
readout: GI50

Could you tell me which GI50 is on file for O=P(O)(O)OCC1OC(n2cnc3c(NCc4ccco4)ncnc32)C(O)C1O (stereo unspecified) ?
422 nM

Could you tell me which GI50 is on file for `c1ccc2cc(Cn3cc[n+](Cc4ccc5ccccc5c4)c3)ccc2c1` ?
675 nM

Could you tell me which GI50 is on file for `Clc1ccccc1[C@@H]1C[C@@H]2Cc3cc(Br)c4ccccc4c3N1O2` ?
3290 nM

Could you tell me which GI50 is on file for `CCCCC[C@H]1CC=C2C(=O)C=C[C@@H]2CC=CCCCC(=O)O[C@@H](CCCCC)CC=C2C(=O)C=C[C@@H]2CC=CCCCC(=O)O[C@@H](CCCCC)CC=C2C(=O)C=C[C@@H]2CC=CCCCC(=O)O1` ?
192 nM

Could you tell me which GI50 is on file for `C=C(C)[C@@H]1CC[C@]2(COCCCNCCCN)CC[C@]3(C)[C@H](CC[C@@H]4[C@@]5(C)CC[C@H](OCCCN)C(C)(C)[C@@H]5CC[C@]43C)[C@@H]12` ?
942 nM

Could you tell me which GI50 is on file for `Cn1cc(-c2nc(-c3c[nH]c4ccncc34)cs2)c2ccccc21` ?
1690 nM

---

System: SR leukemia
Assay: NCI tumour cell line growth inhibition, 48 h
For each record, write down the corresponding TGI.

So what TGI did COC(NC(N)=O)C(=O)O (stereo not drawn) get with SR leukemia?
> 100 µM

So what TGI did `Cc1c(-c2coc(-c3ccccc3)n2)c(=O)n(-c2ccccc2)n1C` get with SR leukemia?
> 100 µM

So what TGI did `N=S(=O)(c1ccccc1)c1ccccc1` get with SR leukemia?
> 100 µM

---

Test system: HCT-15 colon
Test: NCI tumour cell line growth inhibition, 48 h; in the data active = GI50 below about 0.43 µM; inactive = the rest
Pick one: Y (active), N (inactive)

Dear colleague, could you share the recorded outcome for `O=C(Nc1ccc2ncnc(Nc3ccc(Oc4cccc(F)c4)c(Cl)c3)c2c1)c1ccc(CN2CCOCC2)cc1` when you have a moment?
N

Dear colleague, could you share the recorded outcome for `CCCCCCCN(CCCCCCC)C(=N)c1ccnc2ccccc12` when you have a moment?
N

Dear colleague, could you share the recorded outcome for `CCCCCCCCCCCC[N+](C)(C)Cc1ccccc1` when you have a moment?
N

Dear colleague, could you share the recorded outcome for CC(CN(C)C)S(=O)(=O)c1ccc(-c2cnc(N)c(C(=O)Nc3ccccc3)n2)cc1 (stereo not drawn) when you have a moment?
N

Dear colleague, could you share the recorded outcome for `COc1cc(OC)c(/C=C/C(=O)c2ccc(Nc3ncnc4ccccc34)cc2)c(OC)c1` when you have a moment?
N

Dear colleague, could you share the recorded outcome for `CCCCC[C@H]1CC=C2C(=O)C=C[C@@H]2CC=CCCCC(=O)O[C@@H](CCCCC)CC=C2C(=O)C=C[C@@H]2CC=CCCCC(=O)O[C@@H](CCCCC)CC=C2C(=O)C=C[C@@H]2CC=CCCCC(=O)O1` when you have a moment?
N

Dear colleague, could you share the recorded outcome for `O=C1/C(=C/c2ccc(F)c(F)c2)CN(C(=O)C(Cl)Cl)C/C1=C\c1ccc(F)c(F)c1` when you have a moment?
Y

Dear colleague, could you share the recorded outcome for `O=C1CSC(c2ccc(-c3nc4ccccc4[nH]3)cc2)=N1` when you have a moment?
N
